biological target: GABA-A receptor; anion channel; assay: Binding affinity to BZR receptor on bovine cerebral cortex by [3H]flunitrazepam displacement.
pKi: −log10 of the molar value.
attribute.measured: pKi

1. Oc1ccc(-c2nc3c(O)nc4ccccc4n3n2)cc1 7.17

A = Oc1nc2ccccc2n2nc(-c3ccco3)nc12
B = Oc1nc2ccccc2n2nc(-c3cccs3)nc12
C = Oc1nc2ccc(Br)cc2n2nc(-c3ccco3)nc12
D = COc1ccc(-c2nc3c(=O)[nH]c4ccc(Cl)cc4n3n2)cc1
Data request: Highest pKi first, then in falling order down to the smallest. # respond with the labels, arranged in the requested order
Data returned: D, C, B, A

----------
molecular target: GABA-A receptor; anion channel (Bos taurus) (UniProt P10063+P08220+P20237+P08219+P10064+P22300); assay: GABA ratio is measured by IC50 (compound)/IC50 (compound at 10 uM GABA; type: protein-complex assay
attribute.measured: Ratio

1) Oc1nc2ccc(Cl)cc2n2nc(-c3ccsc3)nc12 0.8
2) COc1ccc(-c2nc3c(O)nc4ccc(Cl)cc4n3n2)cc1 1.03
3) Oc1ccc(-c2nc3c(O)nc4ccc(Cl)cc4n3n2)cc1 0.88
4) Oc1nc2ccccc2n2nc(-c3ccccc3F)nc12 1.04
5) COc1ccc(-c2nc3c(O)nc4ccccc4n3n2)cc1 1.04
6) Oc1nc2ccc(Cl)cc2n2nc(-c3ccoc3)nc12 0.84
7) Oc1nc2ccccc2n2cc(-c3cccs3)nc12 1.13

Values compiled from ChEMBL document CHEMBL1127446.
